# method: Cytotoxicity against african green monkey Vero cells after 72 hrs by MTT assay
# Assay type: cell-based
# condition.info: chlorocebus sabaeus
observation.type: log10 CC50 at 72 h (log10 of the value in µM)
A difference of one corresponds to tenfold CC50 at 72 h; all values are log10 with CC50 at 72 h in µM.

> print(dat)
                                   compound    observation.type  recorded.result
1  Cc1c(C(=O)OC[C@H]2O[C@@H]3OC(C)(C)O[C@@H]3[C@H]3OC(C)(C)O[C@H]32)nnn1Cc1ccccc1  log10 CC50 at 72 h             2.09
2  Cc1c(C(=O)OC[C@H]2O[C@H](O)[C@H](O)[C@H]2OCc2ccccc2)nnn1Cc1ccccc1  log10 CC50 at 72 h             2.78
3  Cc1c(C(=O)OC[C@H]2O[C@H](O)[C@H](O)[C@@H](O)[C@H]2O)nnn1Cc1ccccc1  log10 CC50 at 72 h             4.41

What value of log10 CC50 at 72 h has been recorded for this entry: Cc1c(C(=O)OC[C@@]2(O)OC[C@@H](O)[C@@H](O)[C@@H]2O)nnn1Cc1ccccc1
2.90

Okay, and Cc1c(C(=O)OC[C@H]2O[C@@H]3OC(C)(C)O[C@@H]3[C@H]2OCc2ccccc2)nnn1Cc1ccccc1 ?
2.86

Okay, and Cc1c(C(=O)O[C@H]2[C@H](O)[C@H](O)CO[C@]2(O)CO)nnn1Cc1ccccc1 ?
2.81

Okay, and Cc1c(C(=O)O[C@H]2[C@H](O)[C@@H](CO)OC(O)[C@@H]2O)nnn1Cc1ccccc1 (stereo partly drawn) ?
3.26

Okay, and Cc1cn([C@H]2C[C@H](N=[N+]=[N-])[C@@H](CO)O2)c(=O)[nH]c1=O ?
2.10

Data provenance is ChEMBL document CHEMBL1152863.
